Target: HLA-A*02:03
Assay: IEDB peptide-MHC binding, purified MHC/competitive/radioactivity; bounds were set here for any values at or beyond the usual limits of such assays
Conditions: source organism: Hepacivirus hominis
Rule: IC50 below 20 nM gives 1, anything at or above gives 0.

{"columns": ["seq", "label"],
 "data": [
  ["GLLYFILFFV", 0],
  ["MILMTHFFSI", 0],
  ["LLMCAVHPEL", 0],
  ["FMRDEVSFSV", 1],
  ["VLVGGVLAAL", 1],
  ["YMLVLAEALI", 0],
  ["LLSVGVGIYL", 0],
  ["ALDCQIYGA", 0],
  ["FLLALLSCL", 1],
  ["TSISGVLWTV", 0],
  ["LLALLSCISV", 1],
  ["FLLALLSCI", 1],
  ["LLAPITAYA", 1],
  ["SISGVLWTV", 1],
  ["VLMVDSFDPV", 1],
  ["LLGCIITSL", 0],
  ["GLLGCIITSL", 1],
  ["RLLAPITAYA", 0],
  ["RLHGLEAFSL", 0],
  ["RLLDLSSWFT", 0],
  ["LIQDWIPPL", 0],
  ["FMLCLLLLSV", 0],
  ["YSMAGNWAKV", 1],
  ["ILMTHFFSI", 1],
  ["MVLMTHFFSV", 0],
  ["TLLGCWSFVL", 0],
  ["RLIVYPDLGV", 1],
  ["VLMTHFFSVL", 0],
  ["MLLIAQAEA", 0],
  ["KLLIAILGPL", 1],
  ["KLLPQLPGV", 1],
  ["YLNTPGLPV", 1],
  ["MMMNWSPTT", 0],
  ["LLIAITAFT", 1],
  ["YVLLLFLLLA", 0],
  ["FMLCLLLLS", 0],
  ["SLMAFTASI", 0],
  ["VLMTHFFSV", 1],
  ["VMWKCLIRL", 0],
  ["ILMTHFFSIL", 0],
  ["MLVCGDDLVV", 0],
  ["ILLSRCLWWT", 0],
  ["MMMNWSPTTA", 1],
  ["YLYGIGSAVV", 1]
]}
